- System: HTLV III
- ASSAY_PROCEDURE: Anti-HIV activity: p24 antigen capture assay in HTLV III-infected C8166 cells
- Format: cell-based
- EXPERIMENTAL_CONDITIONS: concentration giving 50% protection; C8166 cells (human CD4+ T-lymphoblast line) infected with 10-fold TCD50 of virus; 72 h incubation at 37°C; viral protein 24 antigen in supernatant
Parameter: IC50. Scope: all listed entries.
# value in nM; strip the unit string

Would you please look over these solved cases?
Nc1nc(Cl)nc2c1ncn2[C@@H]1O[C@H](CO)C[C@@H]1F
1000
[N-]=[N+]=Nc1nc(N)c2ncn([C@@H]3O[C@H](CO)C[C@@H]3F)c2n1
10000

Turning now to a further record.
So, `Nc1nc(N)c2ncn([C@@H]3O[C@H](CO)C[C@@H]3F)c2n1` ? Its IC50 was 1000
